Reference for the values: ChEMBL document CHEMBL5604061

Biological target: NS3 (West Nile virus, UniProt K4FQI5)
Sequence (K4FQI5 whole entry): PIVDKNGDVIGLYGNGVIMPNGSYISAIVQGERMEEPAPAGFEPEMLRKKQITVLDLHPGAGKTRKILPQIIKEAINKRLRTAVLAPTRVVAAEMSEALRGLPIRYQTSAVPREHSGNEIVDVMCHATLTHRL
Assay: Functional biochemical assay to identify treatments for viral infectious disease that targets West Nile NS2B-NS3 protease. Utilizing a direct enzyme activity measurement method, reading the fluorescence intensity is used to characterize the relative potency of inhibitors as IC50.
The following molecules are shown together with reported log10 of IC50 values.
quantityMeasured: log10 of IC50 (log10 of the value in nM)

{"smilesStr": "O=C(Nc1ccc2c(c1)CNC2)c1cc(F)cc(-c2cn[nH]c2)c1", "log10 of IC50": 2.84}
{"smilesStr": "O=C(Nc1cc2c(c(C3=CCS(=O)(=O)CC3)c1)CNC2)c1cc(F)cc2[nH]ncc12", "log10 of IC50": 2.95}
{"smilesStr": "O=C(Nc1ccc2c(c1)CNC2)c1cccc2nc(O)ccc12", "log10 of IC50": 3.83}
{"smilesStr": "COc1ccc(Cl)cc1[C@H](Nc1ccc2c(c1)CNC2)C(=O)NCC(F)F", "log10 of IC50": 2.73}
{"smilesStr": "C=Cc1cc2c(cc1NC(=O)c1cc(F)cc3[nH]ncc13)CNC2", "log10 of IC50": 2.69}
{"smilesStr": "O=C(Nc1ccc2c(c1)CNC2)c1cc(Cl)cc2[nH]c(-c3ncnn3C3CC3)nc12", "log10 of IC50": 4.94}
{"smilesStr": "CN(c1ccc2c(c1)CNC2)[C@H](C(=O)NCC(F)F)c1cc(Cl)cc(C2CC2)c1", "log10 of IC50": 2.12}
{"smilesStr": "Cc1ncc(-c2cc(F)cc(C(=O)Nc3ccc4c(c3)CNC4)c2)o1", "log10 of IC50": 3.82}
